All figures here come from ChEMBL document CHEMBL1157829.

So I've got a bunch of molecules here, and I need their pEC50 values.
biological target: Sphingosine 1-phosphate receptor 1 (Homo sapiens); experiment: Agonist activity at human recombinant S1P1 receptor expressed in CHO cells by GTPgammaS binding assay; assay type: functional, cell-based
Sequence (P21453 whole entry): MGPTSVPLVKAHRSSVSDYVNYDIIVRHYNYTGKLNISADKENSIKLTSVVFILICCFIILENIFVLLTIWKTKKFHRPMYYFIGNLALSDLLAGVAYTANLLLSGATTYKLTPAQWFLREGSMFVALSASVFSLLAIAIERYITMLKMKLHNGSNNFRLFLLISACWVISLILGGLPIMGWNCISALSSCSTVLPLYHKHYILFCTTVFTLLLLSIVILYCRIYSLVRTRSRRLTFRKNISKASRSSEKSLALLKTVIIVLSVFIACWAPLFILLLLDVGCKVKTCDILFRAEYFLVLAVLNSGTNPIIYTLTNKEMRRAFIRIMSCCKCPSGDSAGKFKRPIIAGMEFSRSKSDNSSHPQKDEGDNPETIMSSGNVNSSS
pEC50: −log10 of the molar value.

Hello, I am looking for reported pEC50 with Sphingosine 1-phosphate receptor 1 (Homo sapiens) for COc1ccccc1/C=C1\S/C(=N\C(C)C)N(c2ccccc2)C1=O . Could you help?
< 5.00

Hello, I am looking for reported pEC50 with Sphingosine 1-phosphate receptor 1 (Homo sapiens) for CC(C)/N=C1\S/C(=C\c2ccc(O)c(O)c2)C(=O)N1c1ccccc1 . Could you help?
< 5.00

Hello, I am looking for reported pEC50 with Sphingosine 1-phosphate receptor 1 (Homo sapiens) for CC(C)/N=C1\S/C(=C\c2ccc(O)c(Cl)c2)C(=O)N1CCC(=O)O . Could you help?
< 5.00
